target: MCH R1 (melanine-concentrating hormone receptor-1) (Homo sapiens); construct: purchased Euroscreen, Gosselies, Belgium; test: Inhibitory effects on MCH R1 binding (Eu-MCH time-resolved fluorescence binding assay); details: concentration inhibiting the binding of MCH (Eu-MCH, 2 nM) to MCH R1 by 50% in vitro; TRF readout; test range 1 nM to 10 μM; read-out: IC50
Sequence (Q99705 whole entry, species assumed): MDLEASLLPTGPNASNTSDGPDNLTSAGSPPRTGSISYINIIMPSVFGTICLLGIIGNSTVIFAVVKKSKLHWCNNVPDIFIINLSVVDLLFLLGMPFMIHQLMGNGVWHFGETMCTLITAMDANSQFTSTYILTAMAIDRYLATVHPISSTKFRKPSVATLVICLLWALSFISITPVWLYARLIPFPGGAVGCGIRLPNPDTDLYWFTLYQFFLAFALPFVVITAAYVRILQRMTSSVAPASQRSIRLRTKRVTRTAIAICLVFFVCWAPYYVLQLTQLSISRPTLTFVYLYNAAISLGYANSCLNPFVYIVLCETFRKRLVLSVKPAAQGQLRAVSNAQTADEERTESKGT
Output true for records whose IC50 is lower than 7 nM, false for records at or above 7 nM.

q: I wonder whether CC(C)C(=O)Nc1cccc(C2CCN(CCCn3c(-c4ccc(Cl)cc4)nc4ccccc43)CC2)c1 has IC50 below 7 nM. Can you tell?
a: true

q: I wonder whether CC(=O)Nc1cccc(C2CCN(CCn3c(-c4ccccc4)nc4ccccc43)CC2)c1 has IC50 below 7 nM. Can you tell?
a: false

q: I wonder whether CC(=O)Nc1cccc(C2CCN(CCCn3c(-c4ccc(Cl)cc4)nc4ccc(Cl)cc43)CC2)c1 has IC50 below 7 nM. Can you tell?
a: false

q: I wonder whether CC(=O)Nc1cccc(C2CCN(CCCn3c(-c4cccc(Cl)c4)nc4cc(C)c(C)cc43)CC2)c1 has IC50 below 7 nM. Can you tell?
a: true

q: I wonder whether CC(=O)Nc1cccc(C2CCN(CCCn3c(-c4ccc(Cl)cc4)nc4ccc(C)cc43)CC2)c1 has IC50 below 7 nM. Can you tell?
a: false

q: I wonder whether CC(=O)Nc1cccc(C2CCN(CCCn3c(-c4ccc(C(F)(F)F)cc4)nc4ccccc43)CC2)c1 has IC50 below 7 nM. Can you tell?
a: true

q: I wonder whether CC(=O)Nc1cccc(C2CCN(CCCn3c(-c4cccs4)nc4ccccc43)CC2)c1 has IC50 below 7 nM. Can you tell?
a: false

* * *

I'd be grateful if you could share measured pIC50 for these entries.
target: MCH R1 (melanine-concentrating hormone receptor-1) (Homo sapiens); construct: purchased Euroscreen, Gosselies, Belgium; assay: Inhibitory effects on MCH R1 binding (Eu-MCH time-resolved fluorescence binding assay); conditions: concentration inhibiting the binding of MCH (Eu-MCH, 2 nM) to MCH R1 by 50% in vitro; TRF readout; test range 1 nM to 10 μM; read-out: IC50
Note on pIC50: it is the negative log10 of concentration, concentration in mol/L.

q: What is its pIC50 for MCH R1 (melanine-concentrating hormone receptor-1) (Homo sapiens)? Entry: CC(=O)Nc1cccc(C2CCN(CCCn3c(-c4ccc5c(c4)OCO5)nc4ccccc43)CC2)c1
a: 7.92

q: What is its pIC50 for MCH R1 (melanine-concentrating hormone receptor-1) (Homo sapiens)? Entry: CC(=O)Nc1cccc(C2CCN(CCCn3c(-c4ccc(C#N)cc4)nc4ccccc43)CC2)c1
a: 7.80

q: What is its pIC50 for MCH R1 (melanine-concentrating hormone receptor-1) (Homo sapiens)? Entry: CC(=O)Nc1cccc(C2CCN(CCCn3c(-c4ccccc4Cl)nc4ccc([N+](=O)[O-])cc43)CC2)c1
a: 7.09

q: What is its pIC50 for MCH R1 (melanine-concentrating hormone receptor-1) (Homo sapiens)? Entry: CC(=O)Nc1cccc(C2CCN(CCCn3c(-c4ccccc4F)nc4ccccc43)CC2)c1
a: 8.00

q: What is its pIC50 for MCH R1 (melanine-concentrating hormone receptor-1) (Homo sapiens)? Entry: COc1cc(Cl)ccc1-c1nc2cc(C)c(C)cc2n1CCCN1CCC(c2cccc(NC(C)=O)c2)CC1
a: 6.96

q: What is its pIC50 for MCH R1 (melanine-concentrating hormone receptor-1) (Homo sapiens)? Entry: CC(=O)Nc1cccc(C2CCN(CCCn3c(-c4ccc(F)cc4)nc4ccc(Cl)cc43)CC2)c1
a: 7.89

q: What is its pIC50 for MCH R1 (melanine-concentrating hormone receptor-1) (Homo sapiens)? Entry: CC(=O)Nc1cccc(C2CCN(CCCn3c(-c4cccn4C)nc4ccccc43)CC2)c1
a: 8.05
